Target Under Test: T1, hu-CD74 antigen (R&D SYSTEMS catalog #3590-CD-050) (human, UniProt P04233-2 73-232, limits assumed)
T1 construct: Bought antigen; also called rhCD74; human CD74
T1 sequence (looked up): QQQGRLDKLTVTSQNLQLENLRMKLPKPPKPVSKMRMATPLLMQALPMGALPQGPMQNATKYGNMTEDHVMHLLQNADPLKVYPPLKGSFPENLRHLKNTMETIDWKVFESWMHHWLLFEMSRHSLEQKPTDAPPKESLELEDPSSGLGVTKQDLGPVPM
Test Description: SPR (Biacore T200), captured on anti-human Fc, rhCD74 analyte
Quantity Name: koff

>>> reading("1337-A09 light chain paired with VH 1251-A06 (SEQ ID NO: 236) (Fab, V domains shown, 'in Fab format') VH: QVQLVESGGGVVQPGRSLRLSCAASGFDFSSYGMHWVRQAPDKGLEWVAVIWDDGSDRYYADSVKGRFTISRDNSKNTLYLQMNSLRAEDTAVYYCARGGTRVLGAIHGTDVWGQGTTVTVSS VL: DIQMTQSPSSLSASVGDRVTITCRASQGIGSWLAWYQQKPEKAPKSLIYAADRLQSGVPSRFSGSGSGTDFTLTISSLQPEDFATYYCQQYHTYPLTFGGGTKVEIK")
"0.000134 s⁻¹"
>>> reading("1337-A08 light chain paired with VH 1251-A06 (SEQ ID NO: 236) (Fab, V domains shown, 'in Fab format') VH: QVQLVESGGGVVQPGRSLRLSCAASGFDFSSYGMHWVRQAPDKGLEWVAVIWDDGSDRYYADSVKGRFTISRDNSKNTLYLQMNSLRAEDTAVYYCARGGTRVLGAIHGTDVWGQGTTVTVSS VL: DIQMTQSPSSLSASVGDRVTITCRASQDIGSWVAWYQQKPEKAPKSLIYASDSLQSGVPSRFSGSGSGTDFTLTISSLQPEDFATYYCQQYNSYPLTFGGGTKVEIK")
"0.000134 s⁻¹"
>>> reading("1337-A10 light chain paired with VH 1251-A06 (SEQ ID NO: 236) (Fab, V domains shown, 'in Fab format') VH: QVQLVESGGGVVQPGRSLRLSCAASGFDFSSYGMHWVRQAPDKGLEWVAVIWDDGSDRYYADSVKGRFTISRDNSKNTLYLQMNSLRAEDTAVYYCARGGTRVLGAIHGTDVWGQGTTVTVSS VL: DIQMTQSPSSLSASVGDRVTITCRASQGISSWVAWYQQKPEKAPKSLIYGSSRLQSGVPSRFSGSGSGTDFTLTISSLQPEDFATYYCQQYNTYPLTFGGGTKVEIK")
"0.000161 s⁻¹"
>>> reading("1337-A06 light chain paired with VH 1251-A06 (SEQ ID NO: 236) (Fab, V domains shown, 'in Fab format') VH: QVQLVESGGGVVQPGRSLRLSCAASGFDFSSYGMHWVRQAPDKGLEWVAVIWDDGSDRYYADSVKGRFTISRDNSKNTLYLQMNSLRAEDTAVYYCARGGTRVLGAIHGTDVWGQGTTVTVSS VL: DIQMTQSPSSLSASVGDRVTITCRASQDIGSWVAWYQQKPEKAPKSLIYGADRLQSGVPSRFSGSGSGTDFTLTISSLQPEDFATYYCQQYNSYPLTFGGGTKVEIK")
"0.000144 s⁻¹"
>>> reading("1337-A05 light chain paired with VH 1251-A06 (SEQ ID NO: 236) (Fab, V domains shown, 'in Fab format') VH: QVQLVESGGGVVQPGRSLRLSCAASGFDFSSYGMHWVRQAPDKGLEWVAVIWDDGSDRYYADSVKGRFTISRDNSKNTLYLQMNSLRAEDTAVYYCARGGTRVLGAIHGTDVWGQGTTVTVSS VL: DIQMTQSPSSLSASVGDRVTITCRASQGIGRWVAWYQQKPEKAPKSLIYGADRLQSGVPSRFSGSGSGTDFTLTISSLQPEDFATYYCQQYNSYPLTFGGGTKVEIK")
"0.000156 s⁻¹"
>>> reading("1337-A04 light chain paired with VH 1251-A06 (SEQ ID NO: 236) (Fab, V domains shown, 'in Fab format') VH: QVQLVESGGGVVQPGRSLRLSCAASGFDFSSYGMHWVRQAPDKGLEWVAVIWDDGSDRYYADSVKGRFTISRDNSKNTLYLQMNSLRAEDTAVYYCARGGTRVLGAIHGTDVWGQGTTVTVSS VL: DIQMTQSPSSLSASVGDRVTITCRASQDIGRWVAWYQQKPEKAPKSLIYGASSLQSGVPSRFSGSGSGTDFTLTISSLQPEDFATYYCQQYNTYPLTFGGGTKVEIK")
"0.000123 s⁻¹"
>>> reading("1337-A07 light chain paired with VH 1251-A06 (SEQ ID NO: 236) (Fab, V domains shown, 'in Fab format') VH: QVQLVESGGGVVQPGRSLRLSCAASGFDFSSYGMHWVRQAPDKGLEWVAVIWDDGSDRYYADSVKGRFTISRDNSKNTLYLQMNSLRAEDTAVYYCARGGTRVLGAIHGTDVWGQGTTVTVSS VL: DIQMTQSPSSLSASVGDRVTITCRASQGISSWVAWYQQKPEKAPKSLIYGASRLQSGVPSRFSGSGSGTDFTLTISSLQPEDFATYYCQQYHTYPLTFGGGTKVEIK")
"0.000141 s⁻¹"
